assayedTarget: T1, BLBlaI-NTD (Bacillus licheniformis, UniProt P06555 1-82)
T1 sequence: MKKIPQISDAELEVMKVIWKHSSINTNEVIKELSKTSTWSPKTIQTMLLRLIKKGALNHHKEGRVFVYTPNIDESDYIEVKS
measurementProtocol: NMR titration
parameter: Kd (µM)
// note: answer is a bare numeric in µM

Ask: I have this binder here, 1/2OP1blaP (dsDNA) DNA 1: AAAGTATTACAT DNA 2: ATGTAATACTTT , and I need its recorded Kd.
Result: 190
